Assay method text: Competitive inhibition of pig heart Cytochrome b-c1 complex using DBH2 as substrate by Line-weaverBurk plot analysis
Set-up: species or system Sus scrofa
Below, each of the molecules is paired with its reported Ki value.
// return numeric value only (unit: nM, not printed)

Task: Give the measured Ki of CC1(c2ccc(Oc3ccccc3)cc2)OC(=O)N(Nc2ccccc2)C1=O (stereo not drawn) .
Output: 51.4

Task: Give the measured Ki of CO/C=C(/C(=O)OC)c1ccccc1Oc1cc(Oc2ccccc2C#N)ncn1 [AZOXYSTROBIN] .
Output: 204

Task: Give the measured Ki of CC1(c2ccc(Oc3ccccc3)cc2)OC(=O)N(Nc2ccc(Br)cc2)C1=O (stereo not drawn) .
Output: 329

---

Below, each of the molecules is paired with its reported pKi value.
Assay method text: Non-competitive inhibition of pig heart succinate-cytochrome c reductase (Electron transport protein complex 2/3) using cytochrome c as substrate by Line-weaverBurk plot analysis
Set-up: species or system Sus scrofa
Recall that pKi is obtained by taking minus log10 of the concentration measured in molar.

The examples below pair each entry with its known result.
CC1(c2ccc(Oc3ccccc3)cc2)OC(=O)N(Nc2ccc(Br)cc2)C1=O (stereo not drawn): 8.03
CC1(c2ccc(Oc3ccccc3)cc2)OC(=O)N(Nc2ccccc2)C1=O (stereo not drawn): 8.44

Task: Give the measured pKi of CO/C=C(/C(=O)OC)c1ccccc1Oc1cc(Oc2ccccc2C#N)ncn1 .
Output: 6.53

---

Assay method text: Inhibition of pig heart succinate-cytochrome c reductase (Electron transport protein complex 2/3) assessed as increase of cytochrome c by spectrophotometer
Design: species or system Sus scrofa
Param label: returns YES when IC50 < 60 nM, returns NO otherwise, including exact equality.

CC1(c2ccc(Oc3ccccc3)cc2)OC(=O)N(Nc2ccccc2)C1=O (stereo not drawn): YES
Cc1ccc(NN2C(=O)OC(C)(c3ccc(Oc4ccccc4)cc3)C2=O)cc1 (stereo not drawn): YES
CC1(c2ccc(Br)nc2)OC(=O)N(Nc2ccc(C(F)(F)F)cc2)C1=O (stereo not drawn): NO
CC1(c2ccc(Oc3ccccc3)cc2)OC(=O)N(Nc2ccc(Br)cc2)C1=O (stereo not drawn): YES
CC1(c2ccc(Oc3ccccc3)cc2)OC(=O)N(Nc2cccc(C(=O)O)c2)C1=O (stereo not drawn): YES
CC1(c2ccc(Br)nc2)OC(=O)N(Nc2ccc(Br)cc2)C1=O (stereo not drawn): NO
CC1(c2ccc(Oc3ccccc3)cc2)OC(=O)N(Nc2ccc(Cl)cc2)C1=O (stereo not drawn): YES
CC1(c2ccc(Oc3ccccc3)cc2)OC(=O)N(Nc2ccc(C(F)(F)F)cc2)C1=O (stereo not drawn): NO

Task: Criterion: IC50 strictly below 60 nM. Is it met by CC1(c2ccc(Br)nc2)OC(=O)N(Nc2ccc(C#N)cc2)C1=O (stereo not drawn) ?
Output: NO

---

Assay method text: Inhibition of pig heart succinate-cytochrome c reductase (Electron transport protein complex 2/3) assessed as increase of cytochrome c by spectrophotometer
Set-up: species or system Sus scrofa
Below, each of the compounds is paired with its reported pIC50 value.
Recall that pIC50 is obtained by taking minus log10 of the concentration measured in molar.

Cc1cccc(C)c1NN1C(=O)OC(C)(c2ccc(Oc3ccccc3)cc2)C1=O (centres undefined): 5.82
CC1(c2ccc(Oc3ccccc3)cc2)OC(=O)N(Nc2ccc(F)cc2Br)C1=O (centres undefined): 7.22
CC1(c2ccc(Oc3ccccc3)cc2)OC(=O)N(Nc2ccc(C#N)cc2)C1=O (centres undefined): 6.56
CC1(c2ccc(Oc3ccccc3)cc2)OC(=O)N(Nc2ccc(C(=O)O)cc2)C1=O (centres undefined): 5.27
Cc1ccc(NN2C(=O)OC(C)(c3ccc(Oc4ccccc4)cc3)C2=O)c(C)c1 (centres undefined): 7.80

Next:
Task: Give the measured pIC50 of COc1ccc(NN2C(=O)OC(C)(c3ccc(Oc4ccccc4)cc3)C2=O)cc1 (centres undefined) .
Output: 7.24
